Quick reference for inhibition among some compounds
Experiment: RAM pathway blockade in budding yeast – dse1pr::URA3 reporter, 5-FOA selection, pilot screen (AID 869);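 further: 0% = DMSO wells with no growth and 100% = 10 µM 1-NA-PP1 with full growth; RAM network block rescues cells from 5-FOA so hits raise OD615 growth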
Conditions: S. cerevisiae dse1pr::URA3 5-FOA growth, OD615, 2 d; at 10 µM; active compounds read high; strain carries analog-sensitive mutant Cbk1 kinase

Compound	inhibition / %
N#Cc1cc2c(nc1SCC(=O)N1CCCCC1)CCCC2	3.67
CCOC(=O)c1ccccc1NC(=O)c1ccc2c(=O)n3c(nc2c1)CCCCC3	1.7
CCOC(=O)CC1C(=O)NCCN1Cc1cccc(OC)c1 (configuration not stated)	0.17
O=C(C1CCN(c2nnc(-n3cccc3)s2)CC1)N1CCOCC1	1.83
O=C(C1COc2ccccc2O1)N1CCCC1 (configuration not stated)	2.62
COc1ccc(-c2nc(CS(=O)CC(=O)NCc3ccccn3)c(C)o2)cc1 (configuration not stated)	1.57
COc1cccc(C2=N/C(=C\N(C)C)C(=O)O2)c1	-0.855
COc1ccccc1NCN1C(=O)CCC1=O	1.98
Cc1ccccc1Cn1ccc(NC(=O)c2onc(C)c2Cl)n1	1.72
N#CCc1nc2n(n1)Cc1ccccc1-2	3.54
Cn1c(=O)c2c(nc(CN3CCN(Cc4ccccc4)CC3)n2Cc2cccc(Cl)c2)n(C)c1=O	1
CCCc1cc(=O)oc2cc(C)cc(OC(=O)c3ccco3)c12	3.94
